Target: recombinant rat mGluR5 (Rattus norvegicus)
Sequence (P31424 21-1203): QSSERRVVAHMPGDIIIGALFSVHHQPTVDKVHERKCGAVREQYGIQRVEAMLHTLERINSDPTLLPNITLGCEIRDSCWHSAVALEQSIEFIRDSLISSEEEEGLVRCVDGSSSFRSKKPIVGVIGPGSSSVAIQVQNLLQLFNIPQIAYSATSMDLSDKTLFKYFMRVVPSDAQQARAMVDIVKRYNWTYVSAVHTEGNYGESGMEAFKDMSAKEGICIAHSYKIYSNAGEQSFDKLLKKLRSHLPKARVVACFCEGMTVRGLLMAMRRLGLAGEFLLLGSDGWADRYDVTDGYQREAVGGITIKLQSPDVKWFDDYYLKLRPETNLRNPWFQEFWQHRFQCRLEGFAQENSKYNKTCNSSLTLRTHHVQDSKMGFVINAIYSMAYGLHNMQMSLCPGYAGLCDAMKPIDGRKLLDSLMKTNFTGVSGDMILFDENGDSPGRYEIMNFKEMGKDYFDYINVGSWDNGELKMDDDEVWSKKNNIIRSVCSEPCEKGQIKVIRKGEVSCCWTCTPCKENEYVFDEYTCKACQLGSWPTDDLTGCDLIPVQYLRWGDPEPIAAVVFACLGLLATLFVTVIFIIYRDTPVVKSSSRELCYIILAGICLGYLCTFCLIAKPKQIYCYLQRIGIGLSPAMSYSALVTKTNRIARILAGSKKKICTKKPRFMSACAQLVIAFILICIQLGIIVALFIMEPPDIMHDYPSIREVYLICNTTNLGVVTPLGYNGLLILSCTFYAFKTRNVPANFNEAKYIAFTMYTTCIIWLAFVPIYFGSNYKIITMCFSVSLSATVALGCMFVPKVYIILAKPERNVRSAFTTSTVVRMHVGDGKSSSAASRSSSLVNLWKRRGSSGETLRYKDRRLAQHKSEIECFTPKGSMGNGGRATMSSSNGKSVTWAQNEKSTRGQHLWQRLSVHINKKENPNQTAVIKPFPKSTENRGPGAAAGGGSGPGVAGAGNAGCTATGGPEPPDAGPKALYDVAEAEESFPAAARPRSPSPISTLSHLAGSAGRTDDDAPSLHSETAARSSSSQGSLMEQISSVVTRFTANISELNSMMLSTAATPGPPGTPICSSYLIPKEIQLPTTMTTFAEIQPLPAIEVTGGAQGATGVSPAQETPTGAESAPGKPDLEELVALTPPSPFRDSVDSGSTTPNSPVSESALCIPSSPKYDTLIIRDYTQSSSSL
Assay: Functional calcium flux assay (FLIPR), antagonism of glutamate-evoked [Ca2+]i increase
Conditions: HEK293 cells stably expressing recombinant rat mGluR5; Fluo-8; 15 min incubation of test compound, then submaximal glutamate
Protocol: Functional Calcium Flux Assay Methodology For functional assays, HEK293 cells stably expressing recombinant rat mGluR5 were seeded in 384-well plates and dye loaded using Fluo-8. Cells were then washed to remove the un-incorporated dye. […] Intracellular calcium ([Ca^2+]i) measurements were performed using a fluorometric imaging plate reader (FLIPR, Molecular Devices). […]
pIC50: −log10 of the molar value.
Consider the following compounds and their measured pIC50 readings.

1. Fc1ccc(-n2cc(C#Cc3ncccn3)c3ccccc32)cc1 [Example Compound 4] | ≥ 6.30
2. Cc1cc(C#Cc2ccncc2)c(C)n1-c1ccc(OC(F)(F)F)cc1 [Example Compound 10] | 5.30 to 6.00

Input: # input compound: Cc1cc(C#Cc2ncccn2)c(C)n1-c1ccc(OC(F)(F)F)cc1 [Example Compound 9] ; wanted: its pIC50
Output: ≥ 6.30

Input: # input compound: Cc1cc(C#Cc2ccccn2)c(C)n1-c1ccc(OC(F)(F)F)cc1 [Example Compound 8] ; wanted: its pIC50
Output: ≥ 6.30
